- EXPERIMENTAL_SYSTEM: UniProtKB P29274
- RUN_DESCRIPTION: Adenosine receptor activity assay (Table 1), A2A activity
- Format: biochemical
- EXPERIMENTAL_CONTEXT: read-out: Ave A2A cAMP IC50
OBSERVATION_TYPE: IC50

Cc1cc2nc(N[C@@H](C)c3cncc(F)c3)nc(C(=O)N3CC(O)C3)c2s1 [Example Z267]: 50 to 100 nM
CC(=O)N[C@H]1CCN(C(=O)c2nc(NCc3cncc(F)c3)nc3ccsc23)C1 [Example Z330]: > 500 nM
CCO[C@@H]1CCN(C(=O)c2nc(N[C@@H](C)c3ccccn3)nc3ccsc23)C1 [Example Z438]: 50 to 100 nM
C[C@H](Nc1nc(C(=O)N2CCC2)c2sc(N)cc2n1)c1cccnc1 [Example Z203]: 100 to 500 nM
COc1cccc(CCNC(=O)c2nc(N[C@@H](C)c3cncc(F)c3)nc3ccsc23)n1 [Example Z411]: 100 to 500 nM
CNc1cc2nc(N[C@@H](C)c3ccccn3)nc(C(=O)NCCO)c2s1 [Example Z222]: > 500 nM
C[C@H](Nc1nc(C(=O)N2CC[C@H](NC(=O)OC(C)(C)C)C2)c2sccc2n1)c1cccnc1 [Example Z314]: 50 to 100 nM

Note: attention shifts to another entry.
[in] For the record C[C@H](Nc1nc(C(=O)N2CC(C(=O)OC(C)(C)C)C2)c2sccc2n1)c1cncc(F)c1 [Example Z572] , what value of IC50 is listed for UniProtKB P29274?
[out] 100 to 500 nM

* * *

- EXPERIMENTAL_SYSTEM: adenosine A2A receptor (Homo sapiens (Human))
- Sequence (P29274 whole entry): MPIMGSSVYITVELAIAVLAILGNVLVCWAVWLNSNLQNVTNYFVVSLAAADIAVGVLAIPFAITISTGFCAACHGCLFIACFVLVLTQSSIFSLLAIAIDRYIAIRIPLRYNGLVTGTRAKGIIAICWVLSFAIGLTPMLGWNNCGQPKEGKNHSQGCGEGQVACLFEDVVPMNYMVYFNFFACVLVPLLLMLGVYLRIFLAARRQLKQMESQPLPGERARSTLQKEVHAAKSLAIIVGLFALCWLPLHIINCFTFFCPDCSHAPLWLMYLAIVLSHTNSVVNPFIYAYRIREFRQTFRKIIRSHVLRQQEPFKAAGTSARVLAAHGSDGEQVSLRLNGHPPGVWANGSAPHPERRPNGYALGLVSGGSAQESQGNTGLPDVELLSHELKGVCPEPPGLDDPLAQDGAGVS
- RUN_DESCRIPTION: Adenosine receptor activity assay (Table 1), A2A activity
- Format: biochemical
- EXPERIMENTAL_CONTEXT: read-out: Ave A2A cAMP IC50
pIC50: −log10 of the molar value.
Each entry below carries its reported pIC50.

C[C@H](Nc1nc(C(=O)NCCc2cccc(O)c2)c2sccc2n1)c1cncc(F)c1: 7.30 to 8.00

[in] GET /values?readout=pIC50&item= `COc1ccc(CNC(=O)c2nc(NCc3cccc(F)c3)nc3ccsc23)cn1`
[out] 7.00 to 7.30

[in] GET /values?readout=pIC50&item= `O=C(NCCO)c1nc(NCc2cc(F)cc(F)c2)nc2ccsc12`
[out] 6.30 to 7.00

* * *

- EXPERIMENTAL_SYSTEM: adenosine A2B receptor (Homo sapiens (Human))
- Sequence (P29275 whole entry): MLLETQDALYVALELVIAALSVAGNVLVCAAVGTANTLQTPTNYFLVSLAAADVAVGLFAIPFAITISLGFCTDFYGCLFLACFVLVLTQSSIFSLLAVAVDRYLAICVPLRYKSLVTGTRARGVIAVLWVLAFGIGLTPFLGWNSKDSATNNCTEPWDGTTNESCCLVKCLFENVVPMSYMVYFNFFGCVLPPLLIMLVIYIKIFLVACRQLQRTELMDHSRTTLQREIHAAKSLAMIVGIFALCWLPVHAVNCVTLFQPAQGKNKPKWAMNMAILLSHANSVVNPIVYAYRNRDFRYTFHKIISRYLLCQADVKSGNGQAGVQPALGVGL
- RUN_DESCRIPTION: Adenosine receptor activity assay (Table 1), A2B activity
- Type: biochemical
- EXPERIMENTAL_CONTEXT: A2A activity to the A2B activity; A2A/A2B
OBSERVATION_TYPE: Ratio

Examples from the recorded data:
CCNC(=O)CC1CN(C(=O)c2nc(N[C@@H](C)c3cncc(F)c3)nc3cc(C)sc23)C1 [Example Z495]: 23.37
C[C@H](Nc1nc(C(=O)N2CC(NC(=O)CC(C)(C)C)C2)c2sccc2n1)c1cncc(F)c1 [Example Z557]: 1.92

(I) CO[C@H](C)CNC(=O)c1nc(N[C@@H](C)c2cccnc2)nc2cc(C)sc12 [Example Z400]
(II) Cc1cc2nc(N[C@@H](C)c3ccccn3)nc(C(=O)N3CC(CNC(=O)OC(C)(C)C)C3)c2s1 [Example Z476]
(III) Cc1cc2nc(N[C@@H](C)c3ccccn3)nc(C(=O)NCc3nccs3)c2s1 [Example Z492]
[in] Put the compounds in ascending order of Ratio. Kindly provide the labels arranged according to the requested ordering.
[out] II, III, I

(I) C[C@H](Nc1nc(C(=O)N2CC(NC(=O)C(C)(C)C(F)(F)F)C2)c2sccc2n1)c1cncc(F)c1 [Example Z606]
(II) Cc1cc2nc(N[C@@H](C)c3cncc(F)c3)nc(C(=O)NCCC3CCN(C)CC3)c2s1 [Example Z562]
(III) CC(C)OC(=O)NC1CN(C(=O)c2nc(N[C@@H](C)c3cncc(F)c3)nc3ccsc23)C1 [Example Z510]
[in] Put the compounds in ascending order of Ratio. Kindly provide the labels arranged according to the requested ordering.
[out] I, III, II
(I: 0.47, III: 2.03, II: 127.97)
